Reference for the values: ChEMBL document CHEMBL1145498

Measurement Target: Casein kinase I isoform gamma-2 (Homo sapiens)
Quick rule: ΔTm of at least 1 °C means y, below that means n.

Compound	Label Value
O=c1cc(N2CCOCC2)oc2c1ccc1ccccc12	n

Ask: Hi, just wondering whether N=C(N)NCCNS(=O)(=O)c1cccc2cnccc12 shows ΔTm of 1 °C or higher.
Reply: n

Ask: Reported ΔTm reaches at least 1 °C for Cn1cc(C2=C(c3cn(CCCN)c4ccccc34)C(=O)NC2=O)c2ccccc21 ?
Reply: n

Ask: Form field: ΔTm at least 1 °C? Entry: Cc1c2ccncc2c(C)c2c1[nH]c1ccccc12
Reply: n

Ask: Hi, just wondering whether O=C(Nc1cccc(Nc2cc(Nc3cccc(C(F)(F)F)c3)ncn2)c1)C1CC1 shows ΔTm of 1 °C or higher.
Reply: y

Ask: Check this compound for ΔTm at or above 1 °C: C[C@@H]1C[C@H]2O[C@@H]2/C=C\C=C\C(=O)Cc2c(Cl)c(O)cc(O)c2C(=O)O1
Reply: n
